- SYSTEM_TESTED: T1, mouse FGFR2b (mouse, UniProt P21803)
- T1 chain: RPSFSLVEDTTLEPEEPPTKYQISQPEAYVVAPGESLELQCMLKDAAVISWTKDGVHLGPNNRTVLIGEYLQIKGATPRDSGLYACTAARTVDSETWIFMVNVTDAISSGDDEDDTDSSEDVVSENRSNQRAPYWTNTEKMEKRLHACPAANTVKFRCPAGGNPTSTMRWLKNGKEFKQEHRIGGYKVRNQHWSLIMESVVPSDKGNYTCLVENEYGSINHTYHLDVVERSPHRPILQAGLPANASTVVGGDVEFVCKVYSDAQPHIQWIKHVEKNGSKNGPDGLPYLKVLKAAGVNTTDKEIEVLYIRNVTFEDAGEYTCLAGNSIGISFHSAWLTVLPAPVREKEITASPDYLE
- EXPERIMENT: BLI
So basically, if Kd comes in under 20 nM it's YES, and if it's 20 nM or more it's NO.

Look over these answered cases.
BINDER: 3G10 (antibody, V domains shown) VH: EVQLQQSGPELVKPGASVKMSCKASGYTFATYNMHWVKQTTGQGLEWIGAIYPDNGDTFYNRKFKDKATLTADKSSTTAYMQLSSLTSEDSAVYYCARGDFAYWGQGTLVTVSA VL: DVLMTQSPASLSASVGETVTITCGASENIYGALNWYQRKQGKSPQLLIYGATNLADGMSSRFSGSGSGRQYSLKISSLHPDDVATYYCQNVLSTPYTFGGGTKLEMK
CATEGORY_LABEL: NO
--
BINDER: 3C9 (antibody, V domains shown) VH: EIQLQQSGAELVKPGASVKMSCKASGYIFRYYNMHWVKRTPGQGLEWIGLIYPDNGDTSYNQKFKGKATLTADTSSSTAYMQLSSLTSEDSAVYYCARGGLDYWGQGTTLTVSS VL: DIQMIQSPASLSASVGETVTITCGASENIYGALNWYQRKQGKSPQLLIYGATNLADGMSSRFSGSGSGRQYSLKISSLHPDDVATYYCQNVLSTPYTFGGGTKLEIK
CATEGORY_LABEL: YES
--
BINDER: 3C7 (antibody, V domains shown) VH: EIQLQQSGAELVKPGASVKMSCKASGYIFRNYYIHWVKRTPGQGLEWIGAIYPDNGDTSYNQRFKVKATLTADTSSSTAYMQLSSLTSEDSAVYYCARAFTYWGQGTTLTVSS VL: DIQMIQSPASLSASVGETVTITCGASENIYGALNWYQRKQGKSPQLLIYGATNLADGMSSRFSGSGSGRQYSLKISSLHPDDVATYYCQNVLSTPYTFGGGTKLEIK
CATEGORY_LABEL: YES
--
BINDER: 3F10 (antibody, V domains shown) VH: EVQLQQSGAELVKPGASVKMSCKASGYTFSFYNIHWVRQTPGQGLEWIGLIYPDNGDTSYNQKFKAKATLTADKSSSTAYMQLSSLTSEDSAVYYCARGGFDYWGQGTTLTVSS VL: DVLMTQSPASLSASVGETVTITCGASENIYGALNWYQRKQGKSPQLLIYGATNLADGMSSRFSGSGSGRQYSLKISSLHPDDVATYYCQNVLSTPYTFGGGTKLEIK
CATEGORY_LABEL: NO
--
BINDER: 3E1 (antibody, V domains shown) VH: QVQLQQPGAEVVKPGASVKMSCKASGYTFTDYYIHWVKQTPGQGLEWIGAIYPDNGDTSYNQKFKVKATLTADKSSSTAYMQLSSLTSEDSAVYYCARAFTYWGQGTLVTVSA VL: DILITQSPASLSASVGETVTITCGASENIYGALNWYQRKQGKSPQLLIYGATNLADGMSSRFSGSGSGRQYSLKISSLHPDDVATYYCQNVLSTPYTFGGGTKLEIK
CATEGORY_LABEL: NO

Dear reviewer, please state whether 3F11 (antibody, V domains shown) VH: QVQLQQSGAELVKPGASVKMSCKASGYTFAPYNIHWVRQTPGQGLEWIGLIYPDNGDTSYNQKFKAKATLTADKSSSTAYMQLSSLTSEDSAVYYCARGGFDYWGQGTSLTVSS VL: DIVMTQSQKFMSTSVGDRVSVTCKASQNVGTNVAWYQQKPGQSPKALIYSASYRYSGVPDRFTGSGSGTDFTLTISNVQSEDLAEYFCQQHYSTPFTFGSGTKLEIK has Kd strictly beneath 20 nM. NO

Dear reviewer, please state whether 2B1 (antibody, V domains shown) VH: EVQLQQSGAELVKPGASVKMSCKASGYTFASYNLHWVKQTPGQGLEWIGLIYPENGDTSYNQKFKGKATLTADKSSSTAYIQLSSLTSEDSAVYFCARGGFDYWGQGTSLTVSS VL: DIQMIQSPASLSVSVGETVTITCRASENIYSNLAWYQQKQGKSPQLLVYNAKTLADGVPSRFSGSGSGTQYSLKINSLQPEDFGSYYCQHFWSTPYTFGGGTKLEIK has Kd strictly beneath 20 nM. NO

Dear reviewer, please state whether 1B8 (antibody, V domains shown) VH: QIQLQQSGAELVKPGASVKMSCKASGYTFASYNLHWVKQTPGQGLEWIGLIYPENGDTSYNQKFKGKATLTADTSSTTAYIQLSSLTSEDSAVYFCARGGFDYWGQGTSLTVSS VL: DIKMTQSPASLSASVGETVTITCGASENIYGALNWYQRKQGKSPQLLIYGATNLADGMSSRFSGSGSGRQYSLKISSLHPDDVATYYCQNVLSTPYTFGGGTKLEIK has Kd strictly beneath 20 nM. NO

Dear reviewer, please state whether 3A8 (antibody, V domains shown) VH: QVQLQQSGAELVKPGASVKMSCKASGYTFTIYNIHWVRQTPGQGLEWIGLIYPDNGDTSYNQKFKAKATLTADKSSSTAYMQLSSLTSEDSAVYYCARGGFDYWGQGTSLTVSS VL: DIVMTQSQKFMSTSVGDRVSVTCKASQNVGTNVAWYQQKPGQSPKALIYSASYRYSGVPDRFTGSGSGTDFTLTISNVQAEDLADYFCQQHYSTPYTFGGGTKLEMK has Kd strictly beneath 20 nM. YES

Dear reviewer, please state whether 3F5 (antibody, V domains shown) VH: EIQLQQSGAELVKPGASVKMSCKASGYTFRYYNMHWVKRTPGQGLEWIGLIYPDNGDTSYNQKFKGKATLTADTSSSTAYMQLSSLTSEDSAVYYCARGGLDYWGQGTTLTVSS VL: DIVLTQSPASLSASVGETVTITCGASENIYGALNWYQRKQGKSPQLLIYGATNLADGMSSRFSGSGSGRQYSLKISSLHPDDVATYYCQNVLSTPYTFGGGTKLEIK has Kd strictly beneath 20 nM. NO

Dear reviewer, please state whether 1G6 (antibody, V domains shown) VH: EIQLQQSGAELVKPGASVKMSCKASGYTFRYYNMHWVKRTPGQGLEWIGLIYPDNGDTSYNQKFKGKATLTADTSSSTAYMQLSSLTSEDSAVYYCARGGLDYWGQGTSLTVSS VL: NIVMTQSHKFMSTSVGDRVSITCKASQDVNTDVAWYQQKPGQSPKLLIYSASYRYTGVPTRFTGSGSGTDFTFTISGVQAEDLADYYCQQHYNTPYTFGGGTKLELK has Kd strictly beneath 20 nM. NO
